Test system: upland rice (Oryza sp., var. Tebonnet, RICE)
Assay: Pre-emerge test, crop safety
Assay type: in vivo
Settings: 250 g ai/ha; rated 14 days after application; 0 = no damage, 100 = complete death
The following compounds are listed with their measured Pre-emerge phytotoxicity rating (0-100), crop damage, RICE values.
Reply: number alone, nothing else.

{"columns": ["compound", "readout.value"],
 "data": [
  ["COc1c(Cl)cc(F)c(-n2c(=O)cc(C(F)(F)F)n(C)c2=O)c1NC(=O)C(C)=Cc1ccccc1 [2-81]", 90],
  ["COc1c(Cl)cc(F)c(-n2c(=O)cc(C(F)(F)F)n(C)c2=O)c1N(C(=O)c1ccc(F)c(F)c1)C(=O)c1ccc(F)c(F)c1 [2-49]", 60],
  ["CCOc1ccc(C(=O)Nc2c(OC)c(Cl)cc(F)c2-n2c(=O)cc(C(F)(F)F)n(C)c2=O)cc1 [2-64]", 60],
  ["COc1c(Cl)cc(F)c(-n2c(=O)cc(C(F)(F)F)n(C)c2=O)c1NC(=O)c1c(F)cccc1F [2-47]", 95]
]}

Find the measured Pre-emerge phytotoxicity rating (0-100), crop damage, RICE of COc1c(Cl)cc(F)c(-n2c(=O)cc(C(F)(F)F)n(C)c2=O)c1NC(=O)c1cccc2ccccc12 [2-74] and report it. 60

---

The following molecules are listed with their measured Pre-emerge crop damage CORN (phytotoxicity rating, scale 0-100) values.
Tested on: field corn (Zea mays L., var. Dekalb 535, CORN)
Test: Pre-emerge test, crop safety
Format: in vivo
Conditions: 63 g ai/ha; pre-emerge; rated 14 days after application; 0 = no damage, 100 = complete death
Reply: number alone, nothing else.

// worked examples, Pre-emerge crop damage CORN (phytotoxicity rating, scale 0-100) included
{"columns": ["molecule", "readout.value"],
 "data": [
  ["COc1c(Cl)cc(F)c(-n2c(=O)cc(C(F)(F)F)n(C)c2=O)c1NC(=O)C(C)(C)C", 0],
  ["Cn1c(C(F)(F)F)cc(=O)n(-c2c(F)cc(Cl)c(OCc3ccccc3)c2N)c1=O", 0],
  ["COc1c(Cl)cc(F)c(-n2c(=O)cc(C(F)(F)F)n(C)c2=O)c1NC(C)=O", 30]
]}

Look up and report measured Pre-emerge crop damage CORN (phytotoxicity rating, scale 0-100) (field corn (Zea mays L., var. Dekalb 535, CORN)) for the following molecule: COc1c(Cl)cc(F)c(-n2c(=O)cc(C(F)(F)F)n(C)c2=O)c1NC(=O)CC#N 0

Look up and report measured Pre-emerge crop damage CORN (phytotoxicity rating, scale 0-100) (field corn (Zea mays L., var. Dekalb 535, CORN)) for the following molecule: CCc1ccc(C(=O)Nc2c(OC)c(Cl)cc(F)c2-n2c(=O)cc(C(F)(F)F)n(C)c2=O)cc1 20

Look up and report measured Pre-emerge crop damage CORN (phytotoxicity rating, scale 0-100) (field corn (Zea mays L., var. Dekalb 535, CORN)) for the following molecule: COc1c(Cl)cc(F)c(-n2c(=O)cc(C(F)(F)F)n(C)c2=O)c1N1CCCC1 0

Look up and report measured Pre-emerge crop damage CORN (phytotoxicity rating, scale 0-100) (field corn (Zea mays L., var. Dekalb 535, CORN)) for the following molecule: CCOC(=O)C(C)Nc1cc(Cl)cc(F)c1-n1c(=O)cc(C(F)(F)F)n(C)c1=O (stereo not shown) 95

---

Test system: field corn (Zea mays L., var. Dekalb 535, CORN)
Assay: Pre-emerge test, crop safety
Format: in vivo
Conditions: crop damage, pre-emerge, rate 63 g ai/ha, phytotoxicity rating 0-100 at 14 days after application
experimental.endpoint: Pre-emerge Herbicidal Activity CORN

// worked examples, Pre-emerge Herbicidal Activity CORN included
{"columns": ["compound.structure.string", "experimental.endpoint", "readout.value"],
 "data": [
  ["COc1cccc(COC(=O)Nc2c(C)c(Cl)cc(F)c2-n2c(=O)cc(C(F)(F)F)n(C)c2=O)c1", "Pre-emerge Herbicidal Activity CORN", 55],
  ["Cc1cccc(C)c1OC(=O)Nc1c(C)c(Cl)cc(F)c1-n1c(=O)cc(C(F)(F)F)n(C)c1=O", "Pre-emerge Herbicidal Activity CORN", 0],
  ["COc1c(Cl)cc(F)c(-n2nc(C)n(C(F)F)c2=O)c1NC(=O)c1ccc(F)cc1F", "Pre-emerge Herbicidal Activity CORN", 90]
]}

Field: next compound
Look up and report measured Pre-emerge Herbicidal Activity CORN (field corn (Zea mays L., var. Dekalb 535, CORN)) for the following compound: COc1c(Cl)cc(F)c(N2C(=O)C3=C(CCCC3)C2=O)c1NC(=O)C=Cc1ccccc1 0

---

System: barnyardgrass (Echinochloa crus-galli, ECHCG)
Test: Post-emerge test, greenhouse herbicide activity screening
Assay type: in vivo
Conditions: post-emerge, 63 g ai/ha, phytotoxicity rating 0-100 at 14 days after application
experimental.endpoint: Post-emerge Herbicidal Activity ECHCG
Reply: number alone, nothing else.

{"columns": ["compound", "Post-emerge Herbicidal Activity ECHCG"],
 "data": [
  ["COc1c(Cl)cc(F)c(-n2nnn(CCCF)c2=O)c1NC(=O)COCc1ccccc1", 0],
  ["CC(C)Oc1c(Cl)cc(F)c(N2C(=O)C3=C(CCCC3)C2=O)c1NC(=O)c1ccc(F)cc1F", 10],
  ["Nc1c(O)c(Cl)cc(F)c1N1C(=O)C2CCCCN2C1=S (single isomer, unassigned) [12-3]", 0],
  ["C#CCOc1c(Cl)cc(F)c(N2C(=O)C3=C(CCCC3)C2=O)c1NC(=O)c1ccc(F)cc1F", 20],
  ["Cc1cc(C)c(COC(=O)Nc2c(C)c(Cl)cc(F)c2-n2c(=O)cc(C(F)(F)F)n(C)c2=O)c(C)c1", 20],
  ["Nc1c(O)c(Cl)cc(F)c1N1C(=O)C2CCCCN2C1=S (single isomer, unassigned) [12-2]", 30],
  ["O=C(Nc1cc(Cl)ccc1N1C(=O)C2=C(CCCC2)C1=O)c1ccc2ccccc2c1", 0]
]}

Field: next compound
Find the measured Post-emerge Herbicidal Activity ECHCG of O=C(Nc1cc(Cl)ccc1-n1c(=O)n2n(c1=O)CCCC2)c1ccc2ccccc2c1 and report it. 0

---

Test system: green foxtail (Setaria viridis, SETVI)
Assay: Post-emerge test, greenhouse herbicide activity screening
Assay type: in vivo
Conditions: Setaria viridis, post-emergence, 336 h; post-emerge, 63 g ai/ha, phytotoxicity rating 0-100 at 14 days after application; read-out: Post-emerge Herbicidal Activity SETVI
experimental.endpoint: pest or weed control at 63 g/ha (%)
Value expressed in %; do not type the unit.

// worked examples, pest or weed control at 63 g/ha included
{"columns": ["compound", "assayed.target", "pest or weed control at 63 g/ha (%)"],
 "data": [
  ["Cc1nn(-c2c(N)cc(Cl)cc2F)c(=O)n1C(F)F [Compound 6-22]", "green foxtail (Setaria viridis, SETVI)", 0],
  ["O=C(Nc1cc(Cl)ccc1N1C(=O)c2ccccc2C1=O)c1ccc2ccccc2c1 [Compound 13-5]", "green foxtail (Setaria viridis, SETVI)", 0],
  ["COc1c(Cl)cc(F)c(-n2nc(C)n(C(F)F)c2=O)c1NC(=O)c1ccc2ccccc2c1 [Compound 6-15]", "green foxtail (Setaria viridis, SETVI)", 50]
]}

Find the measured pest or weed control at 63 g/ha of COc1c(Cl)cc(F)c(-c2nn(C)c(C(F)(F)F)c2Cl)c1NC(=O)C=Cc1ccccc1 [Compound 7-15] and report it. 10

Find the measured pest or weed control at 63 g/ha of Cc1nn(-c2c(Cl)cc(Cl)cc2NC(=O)c2ccc3ccccc3c2)c(=O)n1C(F)F [Compound 6-16] and report it. 30

Find the measured pest or weed control at 63 g/ha of CC(C)Oc1c(Cl)cc(F)c(N2C(=O)C3=C(CCCC3)C2=O)c1N [Compound 8-4] and report it. 0

---

The following compounds are listed with their measured ABUTH phytotoxicity rating values.
Test system: velvetleaf (Abutilon theophrasti, ABUTH)
Test: Post-emerge test, greenhouse herbicide activity screening
Type: in vivo
Conditions: post-emerge, 250 g ai/ha, 14 days after application, rating scale 0-100
Reply: number alone, nothing else.

// worked examples, ABUTH phytotoxicity rating included
{"columns": ["compound", "ABUTH phytotoxicity rating"],
 "data": [
  ["Cn1c(C(F)(F)F)cc(=O)n(-c2c(F)cc(Cl)cc2NC2CC2)c1=O", 100],
  ["COc1c(Cl)cc(F)c(-n2c(=O)cc(C(F)(F)F)n(C)c2=O)c1NC(=O)c1ccc2c(C#N)cccc2c1", 100]
]}

Find the measured ABUTH phytotoxicity rating of COc1c(Cl)cc(F)c(-n2c(=O)cc(C(F)(F)F)n(C)c2=O)c1NC(=O)c1ccc2cccc(F)c2c1 and report it. 100

Find the measured ABUTH phytotoxicity rating of COc1ccc(-n2c(=O)cc(C(F)(F)F)n(C)c2=O)c(NC(=O)c2ccc3ccccc3c2)c1 and report it. 100

Find the measured ABUTH phytotoxicity rating of COc1c(Cl)cc(F)c(-n2c(=O)cc(C(F)(F)F)n(C)c2=O)c1NC(=O)C=Cc1ccccc1[N+](=O)[O-] and report it. 100

Find the measured ABUTH phytotoxicity rating of COc1c(C#N)cc(F)c(-n2c(=O)cc(C(F)(F)F)n(C)c2=O)c1NC(=O)C=Cc1ccccc1 and report it. 100

Find the measured ABUTH phytotoxicity rating of N#CCOc1c(Cl)cc(F)c(-n2c(=O)cc(C(F)(F)F)n(N)c2=O)c1NC(=O)c1ccc2ccccc2c1 and report it. 100

Find the measured ABUTH phytotoxicity rating of COc1c(Cl)cc(F)c(-n2c(=O)cc(C(F)(F)F)n(C)c2=O)c1NC(=O)CCc1ccccc1C and report it. 100

Find the measured ABUTH phytotoxicity rating of CCOC(=O)C(C)Oc1ccc(-n2c(=O)cc(C(F)(F)F)n(C)c2=O)c(NC(=O)c2ccc3ccccc3c2)c1 (centres unmarked) and report it. 75

Find the measured ABUTH phytotoxicity rating of COc1ccccc1C=CC(=O)Nc1c(OC)c(Cl)cc(F)c1-n1c(=O)cc(C(F)(F)F)n(C)c1=O and report it. 100

Data provenance is patent US6355799B1.
